- method: Oral bioavailability in rat at 3 mg/kg, iv and po
- Type: ADME, organism-based
- test.parameters: in vivo
assay.endpoint: bioavailability (%)
Supply the numeric figure in %, leaving out any unit text.

Incoming: Quick one: bioavailability of Cc1cc(C)c(-n2nnnc2SCC(=O)Nc2ccc(S(N)(=O)=O)cc2Cl)c(C)c1 ?
Outgoing: 33

Incoming: Quick one: bioavailability of Cc1cc(C)c(-n2nnnc2SCC(=O)Nc2ccc(S(N)(=O)=O)cc2C)c(C)c1 ?
Outgoing: 60

Incoming: Quick one: bioavailability of NS(=O)(=O)c1ccc(NC(=O)CSc2nnnn2-c2cc(Cl)ccc2Cl)c(Cl)c1 ?
Outgoing: 33

Incoming: Quick one: bioavailability of Cc1cc(C)c(-n2nnnc2SCC(=O)Nc2ccccc2[N+](=O)[O-])c(C)c1 ?
Outgoing: 0

###

- subject.of.test: Human immunodeficiency virus type 1 reverse transcriptase (Human immunodeficiency virus 1)
- method: Inhibition of HIV1 wild type Reverse Transcriptase
Task for the reader: assign each of the following compounds its reported pIC50.
Note: pIC50 values are expressed as the negative base-10 logarithm of concentration in M.

Incoming: Query pIC50 on Human immunodeficiency virus type 1 reverse transcriptase (Human immunodeficiency virus 1) for Cc1cc(C)c(-n2nnnc2SCC(=O)Nc2ccc([N+](=O)[O-])cc2Cl)c(C)c1
Outgoing: 7.66

Incoming: Query pIC50 on Human immunodeficiency virus type 1 reverse transcriptase (Human immunodeficiency virus 1) for Cc1ccc(Cl)cc1-n1nnnc1SCC(=O)Nc1ccccc1[N+](=O)[O-]
Outgoing: 7.64

Incoming: Query pIC50 on Human immunodeficiency virus type 1 reverse transcriptase (Human immunodeficiency virus 1) for O=C(CSc1nnnn1-c1ccc(Cl)c(Cl)c1)Nc1ccccc1[N+](=O)[O-]
Outgoing: 6.64

Incoming: Query pIC50 on Human immunodeficiency virus type 1 reverse transcriptase (Human immunodeficiency virus 1) for Cc1ccc(-n2nnnc2SCC(=O)Nc2ccccc2[N+](=O)[O-])c(Br)c1
Outgoing: 8.52

Incoming: Query pIC50 on Human immunodeficiency virus type 1 reverse transcriptase (Human immunodeficiency virus 1) for Cc1cc(C)c(-n2nnnc2SCC(=O)Nc2ccc(C(=O)NCCCN(C)C)cc2Cl)c(C)c1
Outgoing: 8.30

Incoming: Query pIC50 on Human immunodeficiency virus type 1 reverse transcriptase (Human immunodeficiency virus 1) for NS(=O)(=O)c1ccc(NC(=O)CSc2nnnn2-c2cccc(Cl)c2Cl)c(Cl)c1
Outgoing: 8.05

Incoming: Query pIC50 on Human immunodeficiency virus type 1 reverse transcriptase (Human immunodeficiency virus 1) for Cc1cc(C)c(-n2nnnc2SCC(=O)Nc2ccccc2[N+](=O)[O-])c(C)c1
Outgoing: 8.52

Incoming: Query pIC50 on Human immunodeficiency virus type 1 reverse transcriptase (Human immunodeficiency virus 1) for Cc1cc(C)c(-n2nnnc2SCC(=O)Nc2ccccc2Cl)c(C)c1
Outgoing: 8.30

Incoming: Query pIC50 on Human immunodeficiency virus type 1 reverse transcriptase (Human immunodeficiency virus 1) for Cc1cc(C)c(-n2nnnc2SCC(=O)Nc2cccc([N+](=O)[O-])c2)c(C)c1
Outgoing: 6.70

Incoming: Query pIC50 on Human immunodeficiency virus type 1 reverse transcriptase (Human immunodeficiency virus 1) for Cc1cc(C)c(-n2nnnc2SCC(=O)Nc2ccccc2I)c(C)c1
Outgoing: 7.51

Incoming: Query pIC50 on Human immunodeficiency virus type 1 reverse transcriptase (Human immunodeficiency virus 1) for Cc1cc(C)c(-n2nnnc2SCC(=O)Nc2ccc([N+](=O)[O-])cc2C)c(C)c1
Outgoing: 6.78

Incoming: Query pIC50 on Human immunodeficiency virus type 1 reverse transcriptase (Human immunodeficiency virus 1) for Cc1cc(C)c(-n2nnnc2SCC(=O)Nc2ccc(S(N)(=O)=O)cc2C)c(C)c1
Outgoing: 7.27

Incoming: Query pIC50 on Human immunodeficiency virus type 1 reverse transcriptase (Human immunodeficiency virus 1) for Cc1c(Cl)cccc1-n1nnnc1SCC(=O)Nc1ccccc1[N+](=O)[O-]
Outgoing: 8.52

Incoming: Query pIC50 on Human immunodeficiency virus type 1 reverse transcriptase (Human immunodeficiency virus 1) for O=C(CSc1nnnn1-c1cc(Cl)ccc1Cl)Nc1ccccc1[N+](=O)[O-]
Outgoing: 8.40

Incoming: Query pIC50 on Human immunodeficiency virus type 1 reverse transcriptase (Human immunodeficiency virus 1) for O=C(CSc1nnnn1-c1c(Cl)cccc1Cl)Nc1ccccc1[N+](=O)[O-]
Outgoing: 8.40

Incoming: Query pIC50 on Human immunodeficiency virus type 1 reverse transcriptase (Human immunodeficiency virus 1) for Cc1cc(C)c(-n2nnnc2SCC(=O)Nc2ccc(C(N)=O)cc2Cl)c(C)c1
Outgoing: 8.52

Incoming: Query pIC50 on Human immunodeficiency virus type 1 reverse transcriptase (Human immunodeficiency virus 1) for Cc1cc(C)c(-n2nnnc2SCC(=O)Nc2ccc(C(N)=O)cc2C)c(C)c1
Outgoing: 7.26
